target: HNF4α (hepatocyte nuclear factor 4α) (Homo sapiens)
Sequence (P41235 147-377 limits assumed): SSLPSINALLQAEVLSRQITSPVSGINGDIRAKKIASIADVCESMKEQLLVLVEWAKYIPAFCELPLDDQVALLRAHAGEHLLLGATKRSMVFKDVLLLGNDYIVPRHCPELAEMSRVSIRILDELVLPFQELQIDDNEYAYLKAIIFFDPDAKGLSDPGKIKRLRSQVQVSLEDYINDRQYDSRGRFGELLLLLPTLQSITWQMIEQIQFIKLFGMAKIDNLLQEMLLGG
parameter.measured: Kd (µM)

sample.smiles: COc1c(/C=C/C(=O)c2ccc(O)cc2)ccc(O)c1O
target: HNF4α (hepatocyte nuclear factor 4α) (Homo sapiens)
Kd / µM: 78.2

I. O=C(/C=C/c1ccc(O)c(O)c1)O[C@@H]1C[C@@](OC(=O)/C=C/c2ccc(O)c(O)c2)(C(=O)O)C[C@@H](O)[C@@H]1O
II. O=C(/C=C/c1ccc(O)c(O)c1)O[C@H](Cc1ccc(O)c(O)c1)C(=O)O
Prompt line: Two entries are listed, I and II . Which one carries the higher Kd? Write down the label of the entry you select.
Response line: I
(I: 3110 µM, II: 34.9 µM)
